Cited source: patent US20220119354A1

pest or weed control at 125 g/ha reference
system: blackgrass (Alopecurus myosuroides); assay: Test A postemergence, blackgrass; assay type: in vivo; settings: Alopecurus myosuroides, post-emergence, 240 h, 125 g ai/ha, 0 to 100 scale, read-out: Plant response rating, Blackgrass
Your answer is read as %, so omit the unit and give the number.

Worked cases, pest or weed control at 125 g/ha given:
Ask: Using blackgrass (Alopecurus myosuroides) as the test system, report measured pest or weed control at 125 g/ha of C[C@@H](Nc1ncc(C(F)(F)F)c(N)n1)c1cc2ccccc2s1 [Compound 4] .
Reply: 0

Ask: Using blackgrass (Alopecurus myosuroides) as the test system, report measured pest or weed control at 125 g/ha of C[C@@H](Nc1ncc(C(F)(F)F)c(N)n1)c1cc2ccc(F)cc2o1 [Compound 8] .
Reply: 20

Ask: Using blackgrass (Alopecurus myosuroides) as the test system, report measured pest or weed control at 125 g/ha of C[C@@H](Nc1ncc(C(F)(F)F)c(N)n1)C1Cc2ccccc2C1 [Compound 13] .
Reply: 10

Proceed to the following item.
Ask: Using blackgrass (Alopecurus myosuroides) as the test system, report measured pest or weed control at 125 g/ha of Cc1cc(C)cc(OC[C@@H](C)Nc2ncc(C(F)(F)F)c(N)n2)c1 [Compound 25] .
Reply: 0

* * *

system: ryegrass, Italian (Lolium multiflorum); assay: Test A preemergence, Italian ryegrass; type: in vivo; conditions: 125 g ai/ha, 0 to 100 scale, 0 is no effect, 100 is complete control
MEASURED_METRIC: Ryegrass, Italian plant response rating
The response must contain the number and no unit.

Ask: Using ryegrass, Italian (Lolium multiflorum) as the test system, report measured Ryegrass, Italian plant response rating of Cc1ccc2c([C@@H](Nc3ncc(C(F)(F)F)c(N)n3)C3CC3)coc2c1 [Compound 91] .
Reply: 0

Ask: Using ryegrass, Italian (Lolium multiflorum) as the test system, report measured Ryegrass, Italian plant response rating of C[C@H](Nc1ncc(C(F)(F)F)c(N)n1)c1coc2ccc(F)cc12 [Compound 56] .
Reply: 0

Ask: Using ryegrass, Italian (Lolium multiflorum) as the test system, report measured Ryegrass, Italian plant response rating of Nc1nc(N[C@H](c2coc3ccccc23)C2CC2)ncc1C(F)(F)F [Compound 78] .
Reply: 20

Ask: Using ryegrass, Italian (Lolium multiflorum) as the test system, report measured Ryegrass, Italian plant response rating of CC(Nc1nc(N)c(C(F)(F)F)c(C(F)(F)F)n1)C1Cc2ccccc2C1 (racemic) [Compound 69] .
Reply: 0

Ask: Using ryegrass, Italian (Lolium multiflorum) as the test system, report measured Ryegrass, Italian plant response rating of Cc1cccc2sc([C@@H](C)Nc3ncc(C(F)(F)F)c(N)n3)cc12 [Compound 115] .
Reply: 40

* * *

test system: kochia (Kochia scoparia); experiment: Test A postemergence, kochia; type: in vivo; conditions: 500 g ai/ha, 0 to 100 scale, 0 no effect, 100 complete control
MEASURED_METRIC: Plant response rating, Kochia
The response must contain the number and no unit.

Ask: Using known records, supply Plant response rating, Kochia for "CC[C@H](Nc1ncc(C(F)(F)F)c(N)n1)c1cc2ccc(F)cc2o1"
Reply: 30

Ask: Using known records, supply Plant response rating, Kochia for CC(Nc1nc(N)c(C(F)(F)F)c(C(F)(F)F)n1)C1Cc2ccccc2C1 (racemic)
Reply: 80

Ask: Using known records, supply Plant response rating, Kochia for "Nc1nc(N[C@H](c2coc3ccccc23)C2CC2)ncc1C(F)(F)F"
Reply: 20

Ask: Using known records, supply Plant response rating, Kochia for "C[C@H](Nc1nc(N)c(C(F)(F)F)c(C(F)(F)F)n1)C1Cc2ccccc2C1"
Reply: 40

Ask: Using known records, supply Plant response rating, Kochia for Nc1nc(NC(c2cc3ccccc3o2)C2CC2)ncc1C(F)(F)F (stereo not drawn) [Compound 88]
Reply: 90

Ask: Using known records, supply Plant response rating, Kochia for "CC[C@@H](Nc1ncc(C(F)(F)F)c(N)n1)c1coc2ccccc12"
Reply: 90

New cases:
Ask: Using known records, supply Plant response rating, Kochia for "C[C@@H](Nc1nc(N)c(C(F)(F)F)c(C(F)(F)F)n1)c1cc2ccccc2s1"
Reply: 70

Ask: Using known records, supply Plant response rating, Kochia for CC(Nc1ncc([N+](=O)[O-])c(N)n1)c1cc2ccccc2s1 (stereo not drawn)
Reply: 80

Ask: Using known records, supply Plant response rating, Kochia for "C[C@@H](Nc1ncc(C(F)(F)F)c(N)n1)c1cc2ccccc2n1C"
Reply: 40

* * *

tested on: pigweed (Amaranthus retroflexus); experiment: Test A postemergence, pigweed; format: in vivo; conditions: 500 g ai/ha, 0 to 100 scale
MEASURED_METRIC: Plant response rating, Pigweed
The response must contain the number and no unit.

Worked cases, Plant response rating, Pigweed given:
Ask: Using pigweed (Amaranthus retroflexus) as the test system, report measured Plant response rating, Pigweed of C[C@@H](Nc1ncc(C(F)(F)F)c(N)n1)c1cc2cc(F)c(F)cc2o1 [Compounds 30] .
Reply: 100

Ask: Using pigweed (Amaranthus retroflexus) as the test system, report measured Plant response rating, Pigweed of Cc1ccc2cc([C@@H](C)Nc3ncc(C(F)(F)F)c(N)n3)oc2c1 [Compound 14] .
Reply: 90

Ask: Using pigweed (Amaranthus retroflexus) as the test system, report measured Plant response rating, Pigweed of C[C@@H](Nc1ncc(C(F)(F)F)c(N)n1)c1cc2cc(Cl)ccc2o1 [Compound 2] .
Reply: 90

New cases:
Ask: Using pigweed (Amaranthus retroflexus) as the test system, report measured Plant response rating, Pigweed of CCC(Nc1ncc(C#N)c(N)n1)c1cc2ccccc2o1 (racemic) [Compound 20] .
Reply: 90

Ask: Using pigweed (Amaranthus retroflexus) as the test system, report measured Plant response rating, Pigweed of CC(COc1cc(F)c(F)c(F)c1)Nc1ncc(C(F)(F)F)c(N)n1 (centres unmarked) [Compound 36] .
Reply: 0

* * *

test system: kochia (Kochia scoparia); experiment: Test A preemergence, kochia; format: in vivo; details: 500 g ai/ha, 0 to 100 scale
Plant response rating, Kochia reference
The response must contain the number and no unit.

Worked cases, Plant response rating, Kochia given:
Ask: Using known records, supply Plant response rating, Kochia for CC(COc1cccc(C(F)(F)F)c1)Nc1ncc(C(F)(F)F)c(N)n1 (stereo not shown)
Reply: 80

Ask: Using known records, supply Plant response rating, Kochia for "C[C@@H](Nc1ncc(C(F)(F)F)c(N)n1)c1cc2cc(C(F)(F)F)ccc2o1"
Reply: 0

New cases:
Ask: Using known records, supply Plant response rating, Kochia for "CC[C@H](COc1cc(C)cc(C)c1)Nc1ncc(C(F)(F)F)c(N)n1"
Reply: 40

Ask: Using known records, supply Plant response rating, Kochia for "C[C@@H](Nc1ncc(C(F)(F)F)c(N)n1)c1ccc2ccccc2c1"
Reply: 10

* * *

system: foxtail, giant (Setaria faberii); test: Test A postemergence, giant foxtail; type: in vivo; conditions: 125 g ai/ha, 0 to 100 scale, 0 no effect, 100 complete control
MEASURED_METRIC: Plant response rating, Foxtail, Giant
The response must contain the number and no unit.

Ask: Using known records, supply Plant response rating, Foxtail, Giant for "C[C@H](Nc1ncc(C(F)(F)F)c(N)n1)c1coc2ccc(F)cc12"
Reply: 10

Ask: Using known records, supply Plant response rating, Foxtail, Giant for Cc1nc(NC(C)c2coc3ccccc23)nc(N)c1C(F)(F)F (centres unmarked)
Reply: 0

Ask: Using known records, supply Plant response rating, Foxtail, Giant for CC(Nc1nc(N)c(C(F)(F)F)c(C(F)(F)F)n1)c1cc2ccccc2o1 (racemic)
Reply: 0

Ask: Using known records, supply Plant response rating, Foxtail, Giant for "C[C@H](Nc1ncc(C(F)(F)F)c(N)n1)c1cc2c(F)cccc2o1"
Reply: 0

Ask: Using known records, supply Plant response rating, Foxtail, Giant for "C[C@@H](Nc1ncc(C(F)(F)F)c(N)n1)c1coc2cc(Cl)ccc12"
Reply: 20

New cases:
Ask: Using known records, supply Plant response rating, Foxtail, Giant for "C[C@@H](Nc1nc(N)c(C(F)(F)F)c(C(F)(F)F)n1)c1cc2ccccc2s1"
Reply: 0

Ask: Using known records, supply Plant response rating, Foxtail, Giant for "C[C@H](Nc1ncc(C(F)(F)F)c(N)n1)c1cc2cccc(F)c2o1"
Reply: 0

Ask: Using known records, supply Plant response rating, Foxtail, Giant for CC(Nc1nc(N)c(C(F)(F)F)c(C(F)(F)F)n1)C1Cc2ccccc2C1 (racemic)
Reply: 0

* * *

system: kochia (Kochia scoparia); test: Test A postemergence, kochia; format: in vivo; conditions: 500 g ai/ha, 0 to 100 scale, 0 no effect, 100 complete control
Plant response rating, Kochia reference
The response must contain the number and no unit.

Ask: Using known records, supply Plant response rating, Kochia for CC(Nc1nc(N)c(C(F)(F)F)c(C(F)(F)F)n1)c1coc2ccccc12 (stereo not drawn)
Reply: 30

Ask: Using known records, supply Plant response rating, Kochia for "Nc1nc(N[C@@H](c2cc3ccccc3s2)C2CC2)ncc1C(F)(F)F"
Reply: 90

Ask: Using known records, supply Plant response rating, Kochia for CC(Nc1ncc(C(F)(F)F)c(N)n1)c1coc2cccc(F)c12 (racemic)
Reply: 90

Ask: Using known records, supply Plant response rating, Kochia for Cc1ccc2c(C(C)Nc3ncc(C(F)(F)F)c(N)n3)coc2c1 (stereo not drawn)
Reply: 90

Ask: Using known records, supply Plant response rating, Kochia for Nc1nc(NC(c2cc3ccccc3s2)C2CC2)ncc1C(F)(F)F (racemic)
Reply: 90

New cases:
Ask: Using known records, supply Plant response rating, Kochia for Cc1nc(NC(C)c2coc3ccccc23)nc(N)c1C(F)(F)F (stereo not drawn)
Reply: 90

Ask: Using known records, supply Plant response rating, Kochia for CC(Nc1ncc(S(C)(=O)=O)c(N)n1)c1cc2ccccc2s1 (stereo not drawn)
Reply: 90

Ask: Using known records, supply Plant response rating, Kochia for Cc1nc(NC(C)c2cc3ccccc3s2)nc(N)c1C(F)(F)F (stereo not drawn)
Reply: 100

Ask: Using known records, supply Plant response rating, Kochia for Nc1nc(NC(c2coc3ccccc23)C2CC2)ncc1C(F)(F)F (racemic)
Reply: 90

Ask: Using known records, supply Plant response rating, Kochia for "C[C@H](Nc1ncc(C(F)(F)F)c(N)n1)c1cc2c(F)cccc2o1"
Reply: 60

Ask: Using known records, supply Plant response rating, Kochia for CC(Nc1nc(N)c(C(F)(F)F)c(C(F)(F)F)n1)c1cc2ccccc2o1 (racemic)
Reply: 80

Ask: Using known records, supply Plant response rating, Kochia for "CC[C@@H](Nc1ncc(C(F)(F)F)c(N)n1)c1cc2ccc(F)cc2o1"
Reply: 90
